Provenance of the data: patent US9364492B2

system: TRa2; assay: Substrate specificity: glycosylation of acceptor compounds with dextrin by crude TRa2 enzyme solution, HPLC; assay type: biochemical, Trichoderma viride; details: 0.5 mM or 10 mM glycosyl acceptor compound, 10 mg dextrin, pH 5.2, 45° C., 24 hr
# area ratio (%) between acceptor compound and glycoside product per record follows
Give the value, in units of %, as a plain number.

Below are worked cases with known answers.
Any idea what its area ratio (%) between acceptor compound and glycoside product is? The molecule is O=c1c(O)c(-c2ccc(O)c(O)c2)oc2cc(O)cc(O)c12 9.4

Given the molecule O=c1c(-c2ccc(O)cc2)coc2cc(O)cc(O)c12 , what is its reported area ratio (%) between acceptor compound and glycoside product? 6.8

What measured area ratio (%) between acceptor compound and glycoside product goes with O=c1c(-c2ccc(O)cc2)coc2cc(O)ccc12 ? 10.7

Any idea what its area ratio (%) between acceptor compound and glycoside product is? The molecule is O=c1c(O)c(-c2ccc(O)cc2)oc2cc(O)cc(O)c12 3.1

---
If you can, please state the reported area ratio (%) between acceptor compound and glycoside product value of O=C1C[C@@H](c2ccc(O)cc2)Oc2cc(O)cc(O)c21 . 4.4

Which measured area ratio (%) between acceptor compound and glycoside product value corresponds to Oc1cc(O)c2c(c1)O[C@H](c1ccc(O)c(O)c1)[C@@H](O)C2 [(+)-catechin] ? 10

If you can, please state the reported area ratio (%) between acceptor compound and glycoside product value of O=c1ccc2cc(O)c(O)cc2o1 . 3.5

###

test system: TRa2; assay: Glycosidase activity of TRa2 on sugars, TLC; assay type: biochemical, Trichoderma viride; settings: 0.5% sugar, 20 mM acetate buffer pH 5.0, 50° C., 1 hour
quantity: degradation of sugar in culture solution of strain TRa2-1

Short answer please: degradation of sugar in culture solution of strain TRa2-1, TRa2, entry OC[C@H]1O[C@@H]2O[C@H]3[C@H](O)[C@@H](O)[C@@H](O[C@H]4[C@H](O)[C@@H](O)[C@@H](O[C@H]5[C@H](O)[C@@H](O)[C@@H](O[C@H]6[C@H](O)[C@@H](O)[C@@H](O[C@H]7[C@H](O)[C@@H](O)[C@@H](O[C@H]8[C@H](O)[C@@H](O)[C@@H](O[C@H]9[C@H](O)[C@@H](O)[C@@H](O[C@H]1[C@H](O)[C@H]2O)O[C@@H]9CO)O[C@@H]8CO)O[C@@H]7CO)O[C@@H]6CO)O[C@@H]5CO)O[C@@H]4CO)O[C@@H]3CO [γ-Cyclodextrin, γ-cyclodextrin] degraded

Field: degradation of sugar in culture solution of strain TRa2-1 (TRa2). Entry: OC[C@H]1O[C@H](O[C@H]2[C@H](O)[C@@H](O)C(O)O[C@@H]2CO)[C@H](O)[C@@H](O)[C@@H]1O (mixture of isomers) [Maltose, maltose] no degradation

Lab request: please report degradation of sugar in culture solution of strain TRa2-1 under test system TRa2 for OC[C@H]1O[C@@H]2O[C@H]3[C@H](O)[C@@H](O)[C@@H](O[C@H]4[C@H](O)[C@@H](O)[C@@H](O[C@H]5[C@H](O)[C@@H](O)[C@@H](O[C@H]6[C@H](O)[C@@H](O)[C@@H](O[C@H]7[C@H](O)[C@@H](O)[C@@H](O[C@H]8[C@H](O)[C@@H](O)[C@@H](O[C@H]1[C@H](O)[C@H]2O)O[C@@H]8CO)O[C@@H]7CO)O[C@@H]6CO)O[C@@H]5CO)O[C@@H]4CO)O[C@@H]3CO [β-cyclodextrin] no degradation

Give recorded degradation of sugar in culture solution of strain TRa2-1 with TRa2 for the following compound: OC[C@H]1O[C@@H]2O[C@H]3[C@H](O)[C@@H](O)[C@@H](O[C@H]4[C@H](O)[C@@H](O)[C@@H](O[C@H]5[C@H](O)[C@@H](O)[C@@H](O[C@H]6[C@H](O)[C@@H](O)[C@@H](O[C@H]7[C@H](O)[C@@H](O)[C@@H](O[C@H]1[C@H](O)[C@H]2O)O[C@@H]7CO)O[C@@H]6CO)O[C@@H]5CO)O[C@@H]4CO)O[C@@H]3CO [α-Cyclodextrin, α-cyclodextrin] no degradation

// below: degradation of sugar in culture solution of strain TRa2-1 requested for another compound
Param readout = degradation of sugar in culture solution of strain TRa2-1; param system = TRa2; param query = OC[C@H]1O[C@H](O[C@H]2[C@H](O)[C@@H](O)[C@@H](O[C@H]3[C@H](O)[C@@H](O)[C@@H](O[C@H]4[C@H](O)[C@@H](O)C(O)O[C@@H]4CO)O[C@@H]3CO)O[C@@H]2CO)[C@H](O)[C@@H](O)[C@@H]1O (some centres unmarked) [Maltotetraose, maltotetraose] ; response: value degraded
